Assay: Inhibition of pig OSC
Parameters: species or system Sus scrofa
Readout Type: pIC50
Bear in mind: pIC50 is minus log10 of a mol/L concentration; give just that figure.

Query: # pIC50 lookup, item CC(C)=CCCC(C)SCC/C(C)=C/CC/C=C(\C)CC/C=C(\C)CCC1OC1(C)C (stereo unspecified)
Response: 7.30

###

Molecular target: Lanosterol synthase (Candida albicans (strain SC5314 / ATCC MYA-2876) (Yeast), UniProt Q04782)
Sequence (Q04782 whole entry): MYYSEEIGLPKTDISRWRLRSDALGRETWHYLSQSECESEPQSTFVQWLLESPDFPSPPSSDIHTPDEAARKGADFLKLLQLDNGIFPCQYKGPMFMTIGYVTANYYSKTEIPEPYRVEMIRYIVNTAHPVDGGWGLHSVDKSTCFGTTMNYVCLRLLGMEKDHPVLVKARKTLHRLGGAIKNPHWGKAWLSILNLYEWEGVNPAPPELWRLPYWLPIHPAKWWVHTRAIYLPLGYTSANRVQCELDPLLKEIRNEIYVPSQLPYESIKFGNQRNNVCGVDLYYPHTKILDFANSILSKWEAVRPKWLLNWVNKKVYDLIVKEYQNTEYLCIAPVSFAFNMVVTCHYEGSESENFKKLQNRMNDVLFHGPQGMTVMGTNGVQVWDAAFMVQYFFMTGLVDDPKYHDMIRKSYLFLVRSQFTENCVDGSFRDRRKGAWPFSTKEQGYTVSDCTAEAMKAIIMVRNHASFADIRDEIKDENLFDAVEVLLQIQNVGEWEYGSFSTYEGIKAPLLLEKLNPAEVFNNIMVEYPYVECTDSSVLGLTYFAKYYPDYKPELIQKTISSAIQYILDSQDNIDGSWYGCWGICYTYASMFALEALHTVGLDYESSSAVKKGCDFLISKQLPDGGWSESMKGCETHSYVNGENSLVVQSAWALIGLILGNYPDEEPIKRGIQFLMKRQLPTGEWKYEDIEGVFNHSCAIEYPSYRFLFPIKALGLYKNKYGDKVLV
Readout Type: pIC50
To interpret pIC50, take it as minus log10 of a concentration measured in moles per litre.

Query: If you can, please state the reported pIC50 value of CC(C)=CCCC(C)SCC/C(C)=C/CC/C=C(\C)CC/C=C(\C)CCC1OC1(C)C (stereo unspecified) .
Response: 9.66

###

Target: UniProt Q64654
Sequence (Q64654 whole entry): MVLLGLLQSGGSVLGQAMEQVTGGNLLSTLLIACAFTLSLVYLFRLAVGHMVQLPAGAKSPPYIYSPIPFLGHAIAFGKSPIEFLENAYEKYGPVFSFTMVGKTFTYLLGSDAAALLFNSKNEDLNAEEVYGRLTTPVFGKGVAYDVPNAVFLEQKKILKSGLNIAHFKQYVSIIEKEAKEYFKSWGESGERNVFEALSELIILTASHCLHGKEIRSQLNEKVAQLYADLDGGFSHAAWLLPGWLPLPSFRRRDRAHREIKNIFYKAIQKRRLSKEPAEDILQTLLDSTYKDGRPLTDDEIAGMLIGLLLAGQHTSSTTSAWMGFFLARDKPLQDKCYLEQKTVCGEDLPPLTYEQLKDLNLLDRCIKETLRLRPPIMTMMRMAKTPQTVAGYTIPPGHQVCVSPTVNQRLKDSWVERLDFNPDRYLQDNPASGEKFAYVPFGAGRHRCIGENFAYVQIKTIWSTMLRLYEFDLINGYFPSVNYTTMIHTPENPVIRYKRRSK
Assay: Inhibition of rat liver LDM
Readout Type: pIC50
pIC50 here: minus log base 10 of the concentration, concentration in moles per litre.

Query: Returns the measured pIC50 for the input molecule. Input: CC(C)CCC[C@@H](C)[C@H]1C/C(=N\O)[C@@]2(C)[C@@H]3CC[C@@]4(C)C[C@@H](O)CC[C@]4(O)[C@H]3CC[C@]12C
Response: 4.26
